System: MALME-3M melanoma
Test: NCI tumour cell line growth inhibition, 48 h
Property Label: TGI

Examples with their reported TGI follow.
CN1CCN(c2ccc(Nc3ncc4cc5n(c4n3)C3(CCCCC3)CNC5=O)nc2)CC1; 15.4 µM
N=c1oc2ccccc2cc1C(=O)Nc1nccs1; > 100 µM
O=C1C(Br)=CC2(C=C1Br)CCNc1c(O)c3c4c(c12)=NCCC=4C=N3; 0.0946 µM
COc1cc(NC(=O)c2ccccc2Nc2ccnc(C(F)(F)F)c2)cc(OC)c1OC; > 100 µM
N#CC1CCCCC1NC1(C#N)CCCCC1 (configuration not stated); > 100 µM
O=C(NCCCNCCCCNCCCNC(=O)c1cc(-c2ccccc2)nc2ccccc12)c1cc(-c2ccccc2)nc2ccccc12; 4.01 µM

We now examine a further molecule.
CC1OC(OCC2OC(Oc3ccc(C4CC(=O)c5c(O)cc(O)cc5O4)cc3O)C(O)C(O)C2O)C(O)C(O)C1O (configuration not stated) yielded TGI of > 100 µM
